# GI50 per entry
- Tested on: HCT-15
measured_property: GI50 (µM)

> print(dat)
                                 smiles.str  censoring.operator   value
1  C[Si](C)(C)C1=C([Si](C)(C)C)C(Cl)(Cl)C1=O                   =    1.92
2             C1=C(c2ccccc2)CN(c2ccccc2)OC1                   =    77.4
3  Oc1cc(-c2cccc(OC(F)(F)F)c2)nc2ccc(N3CCCC3)cc12                   =  0.0004
4  O=C(c1ccccc1)C1(Br)S(=O)(=O)OCCOS1(=O)=O                   >     100
5      O=c1c2cc3ccccc3n2c(=O)c2cc3ccccc3n12                   >     100

====

- System: CCRF-CEM
- run_description: NCI tumour cell line growth inhibition, 48 h
Activity calls are given as the source filed them. No stated cut-off is given here; in the data, active = GI50 up to about 1.1 µM and inactive = higher.
Outcomes: y = active, n = inactive

molecule	assigned_class
COC(=O)CN1c2nc(C#N)c(C#N)nc2N(CC(=O)OC)c2nc(C#N)c(C#N)nc21	y
CC(C)(CN1CCCCC1)C(=O)/C=C/c1ccc(/C=C/C(=O)C(C)(C)CN2CCCCC2)cc1	y
CCCC/C=C/C=C/C=C/CCCCCCCC(=O)OCC(COC(=O)CCCCCCC/C=C/C1C=CC(CCCC)C(C(=O)O)C1C(=O)O)OC(=O)CCCCCCC/C=C/C=C/C=C/CCCC.OCCNCO (stereo unspecified)	n
N#CCCC1(CCC#N)CCc2ccccc2C1=O	n
COC(=O)c1ccccc1/C=C1\Cc2c(ccc3c2CCC3)C1=O	n
C=CCSC1=N/C(=C\c2ccccc2)C(=O)N1CC=C	n
CN(CC(=O)O)c1ncc2c(n1)-c1ccccc1CC2	n
Cn1nc2ccc([N+](=O)[O-])cc2[n+]1[O-]	n
CC12CCC(C(=O)n3c1nc1ccccc13)C(C)(C)O2 (stereo unspecified)	n
COC(=O)C(C(=O)c1ccccc1)C(C(=O)C(=O)Nc1ccc(OC)cc1OC)C(=O)C(=O)c1ccc(C)cc1 (stereo unspecified)	n
CC1(C)O[C@H]2OC3CCC(=O)CC3(O)[C@H]2O1 (stereo partly specified)	n
CCOC(=O)N1CCC(=O)C(CNC23CC4CC(CC(C4)C2)C3)C1 (stereo unspecified)	n
CCOC(=O)/N=c1\ss/c(=N\C(=S)N(C)C)n1-c1ccccc1	n
c1ccc2c(c1)C(=Nc1ccc(N=C3c4ccccc4-c4ccccc43)cc1)c1ccccc1-2	n
COc1ccc2nc3ccccc3c(NCCN(C)CCCl)c2c1	y
Cc1cccc(N2C(=O)C3c4[nH]c5ccccc5c4C4CCC(C(C)(C)C)CC4C3C2=O)c1 (stereo unspecified)	n
CC(C)Nc1[nH]c(C(=O)c2ccccc2)c(N)c1C(=S)Nc1ccccc1	n
CN1C(=O)c2ccccc2NC(=O)c2cnn(C)c21	n
CC1CC(C#N)=C2NCCCCN2C1=O (stereo unspecified)	n
COc1ccc(CCNC(=S)NC=C2C(=O)c3ccccc3C2=O)cc1OC	n
CN(Cc1cnc2nc(N)nc(N)c2n1)c1ccc(C(=O)NC(CCS(=O)(=O)O)C(=O)O)cc1 (stereo unspecified)	y

====

Overview of reported GI50 across a group of molecules:
- Test system: RXF 393
- run_description: NCI tumour cell line growth inhibition, 48 h
Activity calls are given as the source filed them. No stated cut-off is given here; in the data, active = GI50 up to about 1.1 µM and inactive = higher.

molecule	GI50
Cc1ccc(NC(=O)/C(Cc2cc(=O)oc3cc(O)ccc23)=N\NC(C)(C)C)cc1C	> 100 µM (inactive)
c1ccc(CNc2c3c(nc4ccccc24)CCC3)cc1	14 µM (inactive)
O=[N+]([O-])c1ccc(N2C[N+](c3ccccc3)=NC(c3ccccc3)=N2)cc1	54.5 µM (inactive)
COC1CCC(OC2CC(C3(C)CCC4(CC(O)C(C)C(C(C)/C=C(\C)C(=O)C(C)CC(C)C(=O)O)O4)O3)OC3(OC(C4OC(O)(CO)C(C)CC4C)CC3C)C2C)OC1C (centres undefined)	< 0.01 µM (active)
Cc1cc2nc3c(C(OC4OC(CO)C(O)C(O)C4O)C(O)CO)nn(-c4ccc(F)cc4)c3nc2cc1C (centres undefined)	> 100 µM (inactive)
O=C1c2ccccc2C(=O)c2c1oc(=O)c1ccccc21	4.48 µM (inactive)
Cc1cccc(N2C(=O)C3c4[nH]c5ccccc5c4C4CCC(C(C)(C)C)CC4C3C2=O)c1 (centres undefined)	12.4 µM (inactive)
CCOC(=O)N1CCC(=O)C(CNC23CC4CC(CC(C4)C2)C3)C1 (centres undefined)	17.2 µM (inactive)
CCC1(O)C(=O)OCc2c1cc1n(c2=O)Cc2cc3ccc(C=O)cc3nc2-1 (centres undefined)	2.2 µM (inactive)

Just for reference, ChEMBL document CHEMBL1201862 is where these values come from.
